Sourced from ChEMBL document CHEMBL1145801

- STUDY_TARGET: M-phase inducer phosphatase 2 (Homo sapiens, UniProt P30305, E488Q)
- Sequence (P30305 whole entry E488Q): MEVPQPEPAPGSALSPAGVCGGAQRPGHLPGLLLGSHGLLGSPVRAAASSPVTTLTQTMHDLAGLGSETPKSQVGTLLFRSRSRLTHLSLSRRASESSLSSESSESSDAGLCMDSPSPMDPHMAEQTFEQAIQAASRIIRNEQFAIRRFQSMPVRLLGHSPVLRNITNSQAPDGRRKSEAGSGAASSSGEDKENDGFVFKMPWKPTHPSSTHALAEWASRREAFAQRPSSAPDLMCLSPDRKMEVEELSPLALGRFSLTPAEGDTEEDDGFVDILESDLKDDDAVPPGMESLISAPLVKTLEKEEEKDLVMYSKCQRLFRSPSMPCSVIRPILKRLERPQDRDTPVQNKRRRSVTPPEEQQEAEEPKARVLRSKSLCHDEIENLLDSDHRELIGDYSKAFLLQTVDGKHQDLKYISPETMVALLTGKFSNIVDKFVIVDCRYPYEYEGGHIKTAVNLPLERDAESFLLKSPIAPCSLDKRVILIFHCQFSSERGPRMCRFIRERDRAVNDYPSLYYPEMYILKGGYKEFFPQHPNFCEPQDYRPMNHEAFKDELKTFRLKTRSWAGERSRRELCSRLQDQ
- MEASUREMENT_DESCRIPTION: Inhibitory concentration of compound against mutant E474Q of Cell division cycle 25B was determined
pIC50: −log10 of the molar value.
READOUT_TYPE: pIC50

>>> result("CC(C)=CCc1cccc2c(C3=C(O)C(O)=CC(=O)C3=O)c[nH]c12")
"< 4.30"

====

- STUDY_TARGET: M-phase inducer phosphatase 2 (Homo sapiens, UniProt P30305, R506L)
- Sequence (P30305 whole entry R506L): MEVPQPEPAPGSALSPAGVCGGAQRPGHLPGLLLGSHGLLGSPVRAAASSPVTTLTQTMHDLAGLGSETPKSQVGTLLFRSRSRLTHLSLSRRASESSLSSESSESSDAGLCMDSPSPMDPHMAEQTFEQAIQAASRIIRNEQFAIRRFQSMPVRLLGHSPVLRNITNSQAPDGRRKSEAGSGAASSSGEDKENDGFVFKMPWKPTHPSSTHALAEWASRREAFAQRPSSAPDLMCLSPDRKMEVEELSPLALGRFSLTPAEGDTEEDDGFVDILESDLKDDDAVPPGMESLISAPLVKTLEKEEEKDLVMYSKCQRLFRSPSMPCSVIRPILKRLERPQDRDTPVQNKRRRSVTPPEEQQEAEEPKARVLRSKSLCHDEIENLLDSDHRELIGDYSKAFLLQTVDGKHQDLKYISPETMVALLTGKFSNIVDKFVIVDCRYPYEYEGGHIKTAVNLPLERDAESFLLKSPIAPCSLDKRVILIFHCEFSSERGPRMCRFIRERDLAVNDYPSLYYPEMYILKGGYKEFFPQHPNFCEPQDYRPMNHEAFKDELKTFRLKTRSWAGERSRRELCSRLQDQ
- MEASUREMENT_DESCRIPTION: Inhibitory concentration of compound against mutant R492L of Cell division cycle 25B was determined
READOUT_TYPE: IC50 (µM)

>>> measured_number("CC(C)=CCc1cccc2c(C3=C(O)C(O)=CC(=O)C3=O)c[nH]c12")
11

====

- STUDY_TARGET: M-phase inducer phosphatase 2 (Homo sapiens) (UniProt P30305)
- Sequence (whole entry): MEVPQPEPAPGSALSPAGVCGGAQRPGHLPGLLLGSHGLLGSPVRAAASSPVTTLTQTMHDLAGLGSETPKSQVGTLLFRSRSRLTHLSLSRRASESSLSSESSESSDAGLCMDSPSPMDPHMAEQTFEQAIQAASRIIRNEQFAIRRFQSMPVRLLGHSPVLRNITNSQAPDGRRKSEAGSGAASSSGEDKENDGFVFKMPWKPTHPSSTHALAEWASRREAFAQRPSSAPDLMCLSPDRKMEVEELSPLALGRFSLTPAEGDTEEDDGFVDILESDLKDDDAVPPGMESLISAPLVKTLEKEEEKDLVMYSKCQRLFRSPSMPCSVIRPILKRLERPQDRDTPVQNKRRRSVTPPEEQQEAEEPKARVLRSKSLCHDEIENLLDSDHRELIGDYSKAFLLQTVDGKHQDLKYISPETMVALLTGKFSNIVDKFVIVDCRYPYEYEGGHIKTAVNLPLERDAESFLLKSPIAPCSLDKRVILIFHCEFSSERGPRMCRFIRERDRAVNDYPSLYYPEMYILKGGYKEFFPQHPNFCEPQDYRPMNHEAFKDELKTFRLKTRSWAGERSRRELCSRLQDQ
- MEASUREMENT_DESCRIPTION: Percent inhibition of cell division cycle 25B at 50 uM
inhibition listing for selected compounds.
READOUT_TYPE: inhibition (%)

>>> measured_number("Cc1ccc2c(C3=C(O)C(O)=CC(=O)C3=O)c(C)[nH]c2c1")
16
>>> measured_number("O=C1C=C(O)C(=O)C(c2c[nH]c3ccc(Br)cc23)=C1O")
55
>>> measured_number("Cc1[nH]c2ccc(Cl)cc2c1C1=C(O)C(O)=CC(=O)C1=O")
42
>>> measured_number("O=C1C=C(O)C(=O)C(c2c(C3CC3)[nH]c3ccccc23)=C1O")
32
>>> measured_number("O=C1C=C(O)C(=O)C(c2c[nH]c3cccc(F)c23)=C1O")
5
>>> measured_number("O=C1C=C(O)C(=O)C(c2c[nH]c3c(Cl)cccc23)=C1O")
23
>>> measured_number("O=C1C=C(O)C(=O)C(c2c[nH]c3ccccc23)=C1O")
75
>>> measured_number("COc1cc2[nH]cc(C3=C(O)C(O)=CC(=O)C3=O)c2cc1OC")
19
>>> measured_number("O=C1C=C(O)C(=O)C(c2c(-c3ccccc3)[nH]c3ccccc23)=C1O")
38
>>> measured_number("CC1(c2[nH]c3ccccc3c2C2=C(O)C(O)=CC(=O)C2=O)CC1")
17
>>> measured_number("O=C1C=C(O)C(=O)C(c2c[nH]c3ccc(Cl)cc23)=C1O")
32
>>> measured_number("COc1cccc2c(C3=C(O)C(O)=CC(=O)C3=O)c[nH]c12")
15
>>> measured_number("Cc1cccc2c(C3=C(O)C(O)=CC(=O)C3=O)c[nH]c12")
0
>>> measured_number("O=C1C=C(O)C(=O)C(c2c[nH]c3ccc(OCc4ccccc4)cc23)=C1O")
50
>>> measured_number("CC(C)=CCc1cccc2c(C3=C(O)C(O)=CC(=O)C3=O)c[nH]c12")
99
>>> measured_number("O=C1C=C(O)C(=O)C(c2c[nH]c3cc(OCc4ccccc4)ccc23)=C1O")
97
>>> measured_number("C=CC(C)(C)c1[nH]c2ccccc2c1C1=C(O)C(O)=CC(=O)C1=O")
0
>>> measured_number("CC(C)c1[nH]c2ccccc2c1C1=C(O)C(O)=CC(=O)C1=O")
13
>>> measured_number("O=C1C=C(O)C(=O)C(c2c[nH]c3cc4c(cc23)OCO4)=C1O")
88
>>> measured_number("Cc1ccc2[nH]c(C)c(C3=C(O)C(O)=CC(=O)C3=O)c2c1")
20
>>> measured_number("Cc1[nH]c2c(C)cccc2c1C1=C(O)C(O)=CC(=O)C1=O")
0
>>> measured_number("O=C1C=C(O)C(=O)C(c2c[nH]c3c2ccc2ccccc23)=C1O")
79
>>> measured_number("O=C1C=C(O)C(=O)C(c2c[nH]c3c(Br)cccc23)=C1O")
45
>>> measured_number("O=C1C=C(O)C(=O)C(c2c[nH]c3ccc(F)cc23)=C1O")
32
